tested.target: Recombinant human IL-1β (BioLegend 579404) (human, UniProt P01584 117-269)
assay.overview: cell-based or functional assay
*1 amine or outer side, *2 acyl side, *3 side chain or, on linkers, in order; H or OH if unused. Primed or numbered codes have the meaning given here. [ ]: non-standard residue; d: D form. TyrEtNAc = L-tyrosine O-ethyl acetamide, (S)-3-(4-(2-acetamidoethoxy)phenyl)-2-aminopropanoic acid, CC(=O)NCCOc1ccc(C[C@H](N[*:1])C(=O)[*:2])cc1; AEF′ = (S)-2-amino-3-(6-(2-aminoethoxy)pyridin-3-yl)propanoic acid, O=C([C@H](Cc1ccc(OCCN[*:3])nc1)N[*:1])[*:2]; F4pcCCA = (1R,4s)-4-(4-((S)-2-amino-2-carboxyethyl)phenyl)cyclohexane-1-carboxylic acid; Phe(4-(4-Ac-piperazinyl)) = CC(=O)N1CCN(c2ccc(C[C@H](N)C(=O)O)cc2)CC1; Pro(trans-4-NH2) = O=C([C@@H]1C[C@@H](N[*:3])CN1[*:1])[*:2]; Trp(βS-Me,4-F) = C[C@@H](c1c[nH]c2cccc(F)c12)[C@H](N)C(=O)O; Bip(4'-COOH) = N[C@@H](Cc1ccc(-c2ccc(C(=O)O)cc2)cc1)C(=O)O; 1Nal(3S-Me) = C[C@@H](c1cccc2ccccc12)[C@H](N)C(=O)O; Phe(4-COOH) = N[C@@H](Cc1ccc(C(=O)O)cc1)C(=O)O; h3Pal(5-CN) = N#Cc1cncc(CC[C@H](N)C(=O)O)c1; hTyr = N[C@@H](CCc1ccc(O)cc1)C(=O)O; hCha = N[C@@H](CCC1CCCCC1)C(=O)O; 4Pal = N[C@@H](Cc1ccncc1)C(=O)O; dαMeDab′ = not defined here; dDab = NCC[C@@H](N)C(=O)O; dNMeA = CN[C@H](C)C(=O)O
experimental.readout: MRC5 IC50 (nM)

Some binders with recorded MRC5 IC50:
### Prompt What MRC5 IC50 value was documented for this binder, cyclo([Phe(4-(4-Ac-piperazinyl))]W[Phe(4-COOH)]G[Pro(trans-4-NH2)][1Nal(3S-Me)]D[dNMeA]G[Bip(4'-COOH)][LysAc]L[dA][h3Pal(5-CN)]) [SEQ ID NO: 208 (Example No. 208)] ?
### Response 0.018

### Prompt What MRC5 IC50 value was documented for this binder, cyclo([F4pcCCA]W[Phe(4-COOH)]G[Pro(trans-4-NH2)][1Nal(3S-Me)]D[dNMeA]G[Bip(4'-COOH)][4Pal]G[dDab][hCha]) [SEQ ID NO: 191 (Example No. 191)] ?
### Response 0.019

### Prompt What MRC5 IC50 value was documented for this binder, cyclo([Bip(4'-COOH)][Trp6Cl][Phe(4-COOH)]G[Pro(trans-4-NH2)][Trp(βS-Me,4-F)]D[dNMeA]G[Bip(4'-COOH)]KL[dA][hTyr]) [SEQ ID NO: 184 (Example No. 184)] ?
### Response 0.018

### Prompt What MRC5 IC50 value was documented for this binder, cyclo([Phe(4-(4-Ac-piperazinyl))]W[Phe(4-COOH)]G[Pro(trans-4-NH2)][1Nal(3S-Me)]D[dNMeA]G[Bip(4'-COOH)][4Pal]G[dαMeDab′][hCha]) [SEQ ID NO: 199 (Example No. 199)] ?
### Response 0.024

a: cyclo([Bip(4'-COOH)][Trp7F][Phe(4-COOH)]G[Pro(trans-4-NH2)][Trp(βS-Me,4-F)]D[dNMeA]G[Bip(4'-COOH)]KL[dA][hTyr]) [SEQ ID NO: 185 (Example No. 185)]
b: cyclo([TyrEtNAc]W[Phe(4-COOH)]G[Pro(trans-4-NH2)][Trp(βS-Me,4-F)]D[dNMeA]G[Bip(4'-COOH)]WL[dA][AEF′]) [SEQ ID NO: 164 (Example No. 164)]
### Prompt Would you mind telling me which has the lower recorded MRC5 IC50 between a and b ? Write the label of whichever entry you select.
### Response a
(a: 0.024 nM, b: 0.459 nM)
